- Test system: CEM cells HIV-1 protection, formazan growth assay
- test_details: NCI AIDS Antiviral Assay
experimental_readout: EC50

>>> obs_value("C/C=N\\N1C(=O)c2ccccc2C1=O")
"> 191 µM"
>>> obs_value("NC(=O)C(=O)N/N=C1/c2ccccc2CC1C1(O)C(=O)Nc2c(Cl)cc(Cl)cc21 (stereo unspecified)")
"> 12 µM"
>>> obs_value("O=C(OCCN1CCCCC1)c1cc2ccccc2n1Cc1ccccc1")
"> 200 µM"
>>> obs_value("Cc1cc(O)c(C=NC(=S)c2ccccc2)c(=O)o1")
"> 200 µM"
>>> obs_value("Cc1c(Cl)ccc2c1NC(=O)C2(O)CC(=O)c1cccc2ccccc12 (stereo unspecified)")
"> 97.7 µM"
>>> obs_value("Clc1ccccc1C1=NN(c2ccccc2)C2c3ccccc3OCC12 (stereo unspecified)")
"> 72.4 µM"

Dear colleague, could you send me EC50 for each of the items below? Thanks.
1. N#Cc1[nH]c(=O)n(-c2ccc([N+](=O)[O-])cc2)c1N
2. COc1ccc(CCc2ncc[nH]2)cc1
3. S=C1CC(c2ccc(Cl)cc2)Sc2ccccc2N1 (stereo unspecified)
4. Cc1ccc(-c2nnc(CCCCCCCCc3nnc(-c4ccc(C)cc4O)n3N)n2N)c(O)c1
5. CCN(CC)C(=S)SS(=O)(=O)c1ccc([N+](=O)[O-])cc1

Result:
["> 200 µM", "> 708 µM", "> 200 µM", "> 200 µM", "> 200 µM"]

* * *

Task for the reader: assign each of the following molecules its reported pIC50.
- System: CEM cells HIV-1 protection, formazan growth assay
- test_details: NCI AIDS Antiviral Assay
- settings: measured here: growth of uninfected CEM cells
Give bare numbers, as −log10 of the molar value.

Solved entries:
>>> obs_value("CCNC(=S)N/N=C(\\C)c1cccc(C)n1")
5.96
>>> obs_value("Cc1nc(N)nc2c1CCC(O)S2 (configuration not stated)")
5.99

With those in mind, consider the next molecule.
Task: Item "O=C(NNC(=S)Nc1ccc(Cl)cc1)c1cc(-c2ccccc2)nc2ccccc12" has what recorded pIC50?
Result: 5.07

* * *

What EC50 was measured for each of the following?
- System: CEM cells HIV-1 protection, formazan growth assay
- test_details: NCI AIDS Antiviral Assay

Example entries and their recorded answers appear below.
>>> obs_value("O=C1N2CCNc3ccccc3C(c3ccccc3)N1CC2 (stereo unspecified)")
"> 200 µM"
>>> obs_value("NCCS/C=C\\C(=O)O")
"> 1700 µM"
>>> obs_value("COc1cccc(CN2CC(C)N(N=Cc3c4c(O)c5c(O)c(C)c6c(c5c3O)C(=O)C(C)(O/C=C/C(OC)C(C)C(OC(C)=O)C(C)C(O)C(C)C(O)C(C)/C=C/C=C(\\C)C(=O)N4)O6)C(C)C2)c1 (stereo unspecified)")
"> 200 µM"
>>> obs_value("O=C(O)CCCCCCCC(=O)O")
"> 1320 µM"
>>> obs_value("O=C1N(c2ccccc2)SN2C3C=CC(C4CC43)N12 (stereo unspecified)")
"> 182 µM"
>>> obs_value("Oc1ccccc1/C=N/N1C(=S)N(C23CC4CC(CC(C4)C2)C3)C(=Nc2ccccc2)C1=Nc1ccccc1")
"> 200 µM"
>>> obs_value("N#C/C(=C/NC(=S)NCc1ccccc1)C(N)=O")
"> 200 µM"
>>> obs_value("CN(C)c1nc(N(C)C)nc(N(C)C)n1")
"> 34.7 µM"
>>> obs_value("COc1ccc2[nH]c3c(c2c1)CCc1c(OC)cccc1-3")
"> 200 µM"
>>> obs_value("C=CCc1c(O)c2ccccc2[nH]c1=O")
"> 200 µM"

Next up:
Task: Any idea what EC50 was measured for N=C1N=Nc2nc(C(C(=O)c3cccc4ccccc34)c3nc4n(c3O)C(=N)N=N4)c(O)n21 (stereo unspecified) ?
Result: > 200 µM

* * *

Record form. Attribute: pEC50. Fill in for each entry.
- System: CEM cells HIV-1 protection, formazan growth assay
- test_details: NCI AIDS Antiviral Assay
- Experimental: The ability of compounds to protect human CEM cells from HIV-1 infection is measured as a screen for new compounds capable of inhibiting the HIV virus. Five concentrations of drug were tested on uninfected and infected cells and cell growth was measured using a soluble formazan assay. […] Compounds that provided at least 50% protection were retested. Compounds that provided at least 50% protection on retest were listed as moderately active. […]
pEC50: −log10 of the molar value.

>>> obs_value("O=C1OCC23CCC4C1C42CC1(CC3)OCCO1 (stereo unspecified)")
"< 3.70"

Hey, can you go through the list below and give me pEC50 for every item?
1. O=C1OC(c2ccccc2)c2cccnc21 (stereo unspecified)
2. C=CCP(=O)(CC=C)C(Cl)Cl
3. CCN(CC)CCN1CC(=O)N2CCCCN2C(=O)C1

Result:
["< 2.93", "< 3.70", "< 3.70"]

I have 4 compounds here; please give me pEC50 for each one.
1. CC(=O)OCC1OC(n2c(-c3ccccc3)c(C(C)=O)c(-c3cccc4ccccc34)c(C#N)c2=S)C(OC(C)=O)C(OC(C)=O)C1OC(C)=O (stereo unspecified)
2. Cc1c(CN2CCN(C)CC2)c(O)c2c(=O)c3c(O)c(CN4CCN(C)CC4)c(O)c4c5c(O)c(CN6CCN(C)CC6)c(O)c6c(=O)c7c(O)c(CN8CCN(C)CC8)c(C)c8c1c2c(c34)c(c78)c65
3. Cc1nc(C)c(N2CCN(CN)CC2)c(=O)[nH]1
4. O=C(CC1C(=O)Nc2ccccc2S1=O)Nc1cc(Cl)ccc1Cl (stereo unspecified)

Result:
1: < 3.70; 2: < 4.99; 3: < 3.70; 4: < 5.42

For every listed record, write down its pEC50.
1. CC1(CO)COS(=O)OC1 (stereo unspecified)
2. O=C(O)c1ccc(C2SCc3nc4ccccc4n32)cc1 (stereo unspecified)
3. Cc1n(CC(=O)c2ccccc2)nc2sc(N)n[n+]12

Result:
< 3.67
< 3.70
< 3.70

* * *

- Test system: CEM cells HIV-1 protection, formazan growth assay
- test_details: NCI AIDS Antiviral Assay
- settings: measured here: growth of uninfected CEM cells
Consider the cut-off 30 µM. If the recorded IC50 is strictly smaller, the label is rule met; if not, the label is rule not met.

>>> assigned_category("CCOC(=O)c1nc2cc(Cl)ccc2[nH]c1=O")
"rule not met"
>>> assigned_category("O=C(/C=C/c1c(O)ccc2ccccc12)c1cccc(O)c1")
"rule not met"
>>> assigned_category("O=C(COc1ccc(Cl)cc1)N1N=C(c2ccc([N+](=O)[O-])o2)CC1(O)c1ccccc1 (stereo not given)")
"rule met"
>>> assigned_category("Cc1ccc(OC2CC(n3cnc4c(=O)[nH]c(Br)nc43)OC2Oc2ccc(C)cc2)cc1 (stereo not given)")
"rule met"

Note: attention shifts to another entry.
Task: Problem: For the molecule "Nc1c(Br)cc2c([nH]c(=O)c3cc(Br)ccc32)c1Br" , is IC50 under 30 µM?
Result: rule not met

* * *

Kindly state pIC50 for each of the entries shown.
- Tested on: CEM cells HIV-1 protection, formazan growth assay
- test_details: NCI AIDS Antiviral Assay
- settings: measured here: growth of uninfected CEM cells
pIC50: −log10 of the molar value.

Below: 5 compounds and their reported pIC50.
>>> obs_value("COC(=O)[C@H](C)N1C(=O)N[C@@H](C(C)C)C1=O")
"< 3.70"
>>> obs_value("OCc1nnn(-c2ccccc2)c1CO")
"< 3.70"
>>> obs_value("C=C[C+](CCCC)C(=O)[O-]")
3.20
>>> obs_value("NS(=O)(=O)c1ccc(-c2c3nc(c(-c4ccc(S(N)(=O)=O)cc4)c4ccc([nH]4)c(-c4ccc(S(N)(=O)=O)cc4)c4nc(c(-c5ccc(S(N)(=O)=O)cc5)c5ccc2[nH]5)C=C4)C=C3)cc1")
4.33
>>> obs_value("CC(=O)NS(=O)(=O)c1ccc(N=Cc2ccc3c(c2)OCO3)cc1")
"< 3.70"

Go through the items and report each one's pIC50.
1. O=S1(=O)c2ccccc2NC(c2ccc3ccccc3c2)CC1c1ccccc1F (stereo not drawn)
2. C[Si](C)(C)C#CC#C[Si](C)(C)C.[C-]#[O+].[C-]#[O+].[C-]#[O+].[C-]#[O+].[C-]#[O+].[C-]#[O+].[C-]#[O+].[C-]#[O+].[C-]#[O+].[C-]#[O+].[C-]#[O+].[C-]#[O+].[Co].[Co].[Co].[Co]

Result:
["< 5.19", "< 5.72"]

Task: Which measured pIC50 value corresponds to CC1(C)CC(=O)C2=C(C1)C(c1ccccc1Cl)C1C(=O)CC(C)(C)CC1(O)O2 (stereo not drawn) ?
Result: 4.54

* * *

- Tested on: CEM cells HIV-1 protection, formazan growth assay
- test_details: NCI AIDS Antiviral Assay
pEC50: −log10 of the molar value.
experimental_readout: pEC50

These solved cases illustrate the format of a correct answer.
>>> obs_value("NCCCC[C@H](NC(=O)[C@H](CS)NC(=O)[C@@H](N)Cc1cnc[nH]1)C(=O)N[C@H](Cc1ccccc1)C(=O)N[C@@H](Cc1c[nH]c2ccccc12)C(=O)N[C@@H](Cc1c[nH]c2ccccc12)C(N)=O")
"< 3.70"
>>> obs_value("Cn1cc2c(c1-c1ccccc1)[n+](=O)c1ccccc1n2[O-]")
5.29
>>> obs_value("O=C(c1ccccc1)[C@H]1Nc2ccc(Cl)cc2C2c3ccccc3CC21 (stereo partly specified)")
"< 4.84"

Provide reported pEC50 for each item, in the same order as listed.
1. Cc1ccc(/C=C2\N=C(N3CCOCC3)NC2=O)cc1
2. Cc1ccc(C(=O)Nc2ccc(CP(=O)(O)O)cc2)cc1NC(=O)c1cccc(N)c1
3. CCOC(C)=Nc1cc(OC)cc2c1NC(=O)CCS2
4. O=C(O)/C=N\Nc1nc2ccccc2[nH]1
5. CC(C)(C)OC(=O)NC(Cc1ccc(O)cn1)C(=O)O (stereo unspecified)
6. CC1(C)CC(C2CC(C)(C)CC(C)(C)[C@H]2O)[C@@H](O)C(C)(C)C1 (stereo partly specified)

Result:
1. < 3.70
2. < 3.70
3. < 3.70
4. < 3.70
5. < 3.70
6. < 4.92

State recorded pEC50 for all listed molecules.
1. S=C1Cc2[nH]c(=S)sc(=S)c2C(=S)N1
2. CC1(C)CC2(C)ON=C(c3ccccc3)N2c2ccccc2N1 (stereo unspecified)
3. O=C(Nc1ccccc1)OCCN=C1c2ccccc2CCc2ccccc21
4. CC(=O)OCC1OC(n2c(=O)n(-c3ccccc3)c(=O)c3cc(Br)cc(Br)c32)C(OC(C)=O)C(OC(C)=O)C1OC(C)=O (stereo unspecified)
5. COCC12CC(CC1=O)C1C2ON2c3ccccc3C(=O)C12c1ccccc1 (stereo unspecified)
6. CCOP(=O)(OCC)/C(C#N)=C/c1ccc2ccccc2c1
7. O=c1[nH]c(=O)n(COCc2ccccc2)c2ccc(Br)cc12
8. CN(C)c1ccccc1CC(c1c[nH]c2ccccc12)c1c[nH]c2ccccc12

Result:
1: < 4.19; 2: 4.24; 3: < 3.70; 4: < 4.86; 5: < 4.30; 6: < 4.64; 7: < 3.70; 8: < 4.72

Batch of 5 molecules: report pEC50 for each.
1. O=c1nc2ccc3[nH]c(O)c4ccc1c2c34
2. c1ccc2c(c1)Sc1ccccc1S2
3. Nc1nc(N)c2cc(-c3ccccc3)cnc2n1
4. NC1=NC(=O)[C@H](Cc2c[nH]c3ccccc23)N1C(=O)OCc1ccccc1
5. CCCNCC(=O)O[C@]1(CC)C(=O)OCc2c1cc1n(c2=O)Cc2cc3ccccc3nc2-1

Result:
< 3.70
< 3.70
< 3.70
< 3.70
< 5.00

For every item in the list below, what is its measured pEC50?
1. Cc1ccc(S(=O)(=O)OI(O)CC(F)(F)F)cc1
2. C/C(CC(=O)Nc1cc(Cl)c(Cl)cc1Cl)=N\NC(N)=O
3. COc1ccc(C(=O)c2ccc(OC)c(S(=O)(=O)N(C)C)c2)cc1S(=O)(=O)N(C)C
4. Cc1cc(S(=O)(=O)Nc2nc(N)nc(N(C)C)n2)c(SC(C(=O)O)c2ccccc2)cc1Cl (stereo unspecified)
5. CN1C2=CC=CC=CC2=[N+](C)C1C(=C=[N-])C#N (stereo unspecified)
6. COc1cc(/C=C2\CCC(C)C3=C2NC(=S)NC3c2cc(OC)c(OC)c(OC)c2)cc(OC)c1OC (stereo unspecified)
7. CC(=O)Oc1c(Cl)cc(C(=CCC[C@H]2CC[C@@]3(C)[C@@H](CC[C@@H]4[C@@H]3CC[C@]3(C)[C@@H](C(C)CCCC(C)C)CC[C@@H]43)C2)c2cc(Cl)c(OC(C)=O)c(C(=O)OCc3ccccc3)c2)cc1C(=O)OCc1ccccc1 (stereo partly specified)

Result:
["< 3.70", "< 4.67", "< 4.10", 4.07, "< 3.44", "< 3.70", "< 3.70"]
